- test method notes: activity coefficient (dimensionless); of the first substance listed, at infinite dilution; xn = mol fraction of the nth substance listed
- condition notes: 333.15 K; 101 kPa; Liquid; Chromatography; x1 = 0
quantity: activity coefficient
Give bare numbers.

[
  {
    "compound": "Cc1ccccc1C [1,2-dimethylbenzene] + CCCCn1cc[n+](C)c1.O=S(=O)([O-])C(F)(F)F",
    "quantity": "activity coefficient",
    "data value": 3.7
  },
  {
    "compound": "Cc1ccc(C)cc1 [1,4-dimethylbenzene] + CCCCn1cc[n+](C)c1.O=S(=O)([O-])C(F)(F)F",
    "quantity": "activity coefficient",
    "data value": 4.37
  }
]

Req: Name the reported activity coefficient value associated with the compound Cc1ccccc1 [toluene] + CCCCn1cc[n+](C)c1.O=S(=O)([O-])C(F)(F)F
Resp: 2.8
